- testedSystem: SARS-CoV-2 main protease (M^pro), commercial recombinant (rcM^pro) (SARS-CoV-2)
- assay: enzyme inhibition assay
readoutType: Ki (nM)
Write the answer as a number in nM, unit excluded.

Recorded Ki (substance PPACK (D-Phe-Pro-Arg-CH2Cl) (peptide) ): 160
